Hello, the source for this data is ChEMBL document CHEMBL1201862, in case you need it.

Quick record: IC50, UniProt:P04406.
Sequence (P04406 whole entry): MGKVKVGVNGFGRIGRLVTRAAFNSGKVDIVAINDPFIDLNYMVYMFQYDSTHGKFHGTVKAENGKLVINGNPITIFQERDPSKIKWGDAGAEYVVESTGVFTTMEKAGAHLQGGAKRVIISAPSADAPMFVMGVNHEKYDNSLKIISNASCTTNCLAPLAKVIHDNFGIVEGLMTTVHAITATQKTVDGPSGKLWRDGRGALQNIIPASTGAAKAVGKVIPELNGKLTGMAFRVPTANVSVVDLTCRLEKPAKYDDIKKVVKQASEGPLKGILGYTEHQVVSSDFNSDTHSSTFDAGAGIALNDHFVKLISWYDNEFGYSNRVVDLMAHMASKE
Parameter measured: IC50

{"columns": ["Compound", "Result"],
 "data": [
  ["Cc1oc(-c2cc(Cl)cc(Cl)c2)cc1C(=O)Nc1ccc(S(N)(=O)=O)cc1", "> 100 µM (not active)"],
  ["CCOc1ccc(C(CC(=O)O)C(=O)O)cc1 (stereo not given)", "> 100 µM (not active)"],
  ["CC(=O)Nc1nc(SCCCc2ccccc2)n[nH]1", "> 100 µM (not active)"],
  ["COc1ccc(Cc2nnc(N3C(=O)c4ccccc4C3=O)[nH]2)cc1", "> 100 µM (not active)"],
  ["CCN1CCN(C2=C(Cl)C(=O)N(c3cccc(C)c3)C2=O)CC1", "> 50 µM (inconclusive)"]
]}

###

- Assay summary: cytotoxicity in OVCAR8 ovarian cancer cells, dose response, PAX8 project, cell-based, plate reader, dry powder samples (AID 743197)
- Type: functional
- Conditions used: OVCAR-8
The source made the active and inactive calls.

{"columns": ["Smiles entry", "AC50"],
 "data": [
  ["COc1ccc(-c2ccc([C@@H]3[C@@H]4CN(C(=O)Nc5cccc(F)c5)C[C@H]3N4)cc2)cc1", "58.5 µM (active)"],
  ["C[C@@H]1CN([C@H](C)CO)C(=O)c2cc(NS(=O)(=O)c3ccccc3)ccc2O[C@@H](C)CCCCO[C@H]1CN(C)Cc1ccc(C(F)(F)F)cc1", "17.6 µM (active)"],
  ["C[C@@H]1CN([C@H](C)CO)C(=O)c2cc(NS(=O)(=O)c3ccc(F)cc3)ccc2O[C@@H](C)CCCCO[C@H]1CN(C)S(=O)(=O)c1ccc(Cl)cc1", "> 70 µM (inactive)"],
  ["Cc1ccc(S(=O)(=O)N(C)C[C@H]2Oc3cc(C#Cc4ccncc4)ccc3S(=O)(=O)N([C@H](C)CO)C[C@H]2C)cc1", "17.4 µM (active)"]
]}

###

- Assay summary: Luminescence Cell-Based Dose Response HTS to Identify Inhibitors of 5'UTR Stem-Loop Driven Prion Protein mRNA Translation in H4 Neuroglioblastoma Cells. [Related pubchem assays: 1827 (Project Summary), 1813 (Primary HTS)]
- Type: functional
Calls of active or inactive are those of the source.
Below, each entry is listed alongside its reported EC50.
Parameter measured: EC50

{"columns": ["Compound", "Parameter measured", "Result"],
 "data": [
  ["O=C(/C=C/Nc1ccc(Br)cc1F)c1ccccc1", "EC50", "9.38 µM (active)"],
  ["CN(Cc1ccc(-n2cccn2)cc1)C(=O)c1cnn2c1NC(c1ccco1)CC2C(F)(F)F (stereo not given)", "EC50", "> 120 µM (not active)"],
  ["COc1cc2ccccc2cc1C(=O)Nc1sc2c(c1C(N)=O)CCN(C(C)C)C2", "EC50", "> 120 µM (not active)"],
  ["Cn1nc(-c2ccc(Cl)cc2)nc2c(=O)n(C)c(=O)nc1-2", "EC50", "> 120 µM (not active)"],
  ["N#C/C=C1\\n2c(nc3ccccc32)OC12CCCCC2", "EC50", "> 120 µM (not active)"]
]}

###

- Test system: DNA dC->dU-editing enzyme APOBEC-3G (Homo sapiens, UniProt Q9HC16)
- Sequence (Q9HC16 whole entry): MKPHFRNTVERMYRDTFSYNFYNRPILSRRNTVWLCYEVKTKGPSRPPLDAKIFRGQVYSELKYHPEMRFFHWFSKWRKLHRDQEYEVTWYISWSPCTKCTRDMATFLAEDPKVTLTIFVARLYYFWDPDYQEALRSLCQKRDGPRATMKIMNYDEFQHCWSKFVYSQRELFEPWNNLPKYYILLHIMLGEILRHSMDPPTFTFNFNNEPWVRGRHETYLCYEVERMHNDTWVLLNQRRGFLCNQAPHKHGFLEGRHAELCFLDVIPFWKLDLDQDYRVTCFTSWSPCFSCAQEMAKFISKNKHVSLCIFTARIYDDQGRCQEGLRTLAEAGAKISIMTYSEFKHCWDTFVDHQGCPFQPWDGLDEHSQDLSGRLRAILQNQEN
- Assay summary: Dose Response confirmation of small molecule APOBEC3G DNA Deaminase Inhibitors via a fluorescence-based single-stranded DNA deaminase assay. [Related pubchem assays (depositor defined):AID493012, AID493028]
- Type: functional
Activity calls are given as the source filed them.
Below, each entry is listed alongside its reported IC50.
Parameter measured: IC50

{"columns": ["Compound", "Result"],
 "data": [
  ["COc1cc(C2Nn3c(nnc3-c3ccccc3OC)S2)ccc1O (stereo not given)", "3.57 µM (active)"],
  ["C=CCn1c(S)nnc1CSc1ccccc1[N+](=O)[O-]", "2.24 µM (active)"],
  ["N=C(N)Nc1ccc2[nH]c3c(c2c1)C[C@@]1(O)[C@H]2Cc4ccc(O)c5c4[C@@]1(CCN2CC1CC1)[C@H]3O5", "24.4 µM (active)"],
  ["O=[N+]([O-])c1ccc(/C=N/n2c(S)nnc2-c2cccnc2)cc1", "2.3 µM (active)"],
  ["CN1CCN(C(=O)c2sc(=S)n(-c3ccccc3)c2N)CC1", "5.51 µM (active)"]
]}

###

- Test system: UniProtKB P61088
- Sequence (P61088 whole entry): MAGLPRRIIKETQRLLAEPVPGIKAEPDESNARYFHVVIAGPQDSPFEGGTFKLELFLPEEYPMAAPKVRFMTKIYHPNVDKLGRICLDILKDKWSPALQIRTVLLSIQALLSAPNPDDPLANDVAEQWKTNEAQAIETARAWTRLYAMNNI
- Type: functional
Activity calls are given as the source filed them.
Outcome codes: y (active), n (inactive)

{"columns": ["Compound", "Class assignment"],
 "data": [
  ["NC1=NC[C@@H](Cc2ccc(O)cc2)N1CCCCC1CCCCC1", "n"],
  ["COc1cccc(/C=C2/Sc3ccc(C(=O)NCCN4CCCC4)cc3NC2=O)c1", "n"],
  ["CC(=O)c1ccc(OCC(O)CN2CCN(CCN3C(=O)c4cccc5cccc(c45)C3=O)CC2)cc1 (centres undefined)", "y"],
  ["O=S(=O)(Nc1nc2ccccc2[nH]1)c1ccc(Cl)cc1", "n"],
  ["CCC[C@@H](CN1CCC[C@H]1CN1C(N)=NC[C@@H]1Cc1ccccc1)N1C[C@@H](Cc2ccccc2)N(CCCC2CCCC2)C1=N", "n"],
  ["O=c1c2sccc2[nH]c(=S)n1-c1ccccc1", "n"],
  ["O=C(C(=O)N1CCOCC1)c1cn(Cc2ccc(F)cc2)c2ccccc12", "n"],
  ["O=C(Nc1ccccc1)N1CCN(c2nc(-c3ccccc3)ns2)CC1", "n"],
  ["COc1cccc2sc(N(CCCN(C)C)C(=O)c3ccc(S(=O)(=O)N4CCc5ccccc5C4)cc3)nc12", "y"]
]}

###

- Test system: Induced myeloid leukemia cell differentiation protein Mcl-1 (Homo sapiens)
- Sequence (Q07820 whole entry): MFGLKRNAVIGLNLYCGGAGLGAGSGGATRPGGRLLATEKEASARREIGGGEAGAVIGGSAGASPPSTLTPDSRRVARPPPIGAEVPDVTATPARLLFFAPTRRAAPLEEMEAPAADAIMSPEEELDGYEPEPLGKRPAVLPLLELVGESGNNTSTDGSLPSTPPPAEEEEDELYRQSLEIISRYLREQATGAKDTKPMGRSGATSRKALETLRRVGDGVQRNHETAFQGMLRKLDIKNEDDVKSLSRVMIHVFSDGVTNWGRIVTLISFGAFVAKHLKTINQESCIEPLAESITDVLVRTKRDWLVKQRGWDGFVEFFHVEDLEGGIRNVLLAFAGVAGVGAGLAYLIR
- Assay type: functional
The source made the active and inactive calls.
Below, each entry is listed alongside its reported IC50.

{"columns": ["Compound", "IC50"],
 "data": [
  ["Cc1cccc(NC(=O)CSc2nnc(-c3ccco3)c(-c3ccco3)n2)c1C", "5.98 µM (active)"],
  ["Cc1ccc(NC(=O)CN2C(=O)S/C(=C/c3ccc(-c4cc(C(=O)O)ccc4C)o3)C2=O)cc1C", "2.05 µM (active)"],
  ["COc1cc(O)c(C(=O)O)c(-c2cc(O)c(O)cc2C)c1", "4.15 µM (active)"],
  ["Cc1cc2nc(/C=C/c3nc4cc(C)c(C)cc4[nH]3)[nH]c2cc1C", "3.67 µM (active)"],
  ["COc1cc(C(c2nnnn2C2CCCC2)N2CCc3ccccc3C2)ccc1O (stereo unspecified)", "12.8 µM (active)"],
  ["COc1ccc(Cc2nnc(NC(=O)Cc3cccs3)s2)cc1", "1.59 µM (active)"]
]}

###

- Test system: Cysteine protease ATG4B (Homo sapiens, UniProt Q9Y4P1);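 further: Fluorescence-based dose-response confirmation assay measuring inhibition of ATG4B activity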
- Sequence (Q9Y4P1 whole entry): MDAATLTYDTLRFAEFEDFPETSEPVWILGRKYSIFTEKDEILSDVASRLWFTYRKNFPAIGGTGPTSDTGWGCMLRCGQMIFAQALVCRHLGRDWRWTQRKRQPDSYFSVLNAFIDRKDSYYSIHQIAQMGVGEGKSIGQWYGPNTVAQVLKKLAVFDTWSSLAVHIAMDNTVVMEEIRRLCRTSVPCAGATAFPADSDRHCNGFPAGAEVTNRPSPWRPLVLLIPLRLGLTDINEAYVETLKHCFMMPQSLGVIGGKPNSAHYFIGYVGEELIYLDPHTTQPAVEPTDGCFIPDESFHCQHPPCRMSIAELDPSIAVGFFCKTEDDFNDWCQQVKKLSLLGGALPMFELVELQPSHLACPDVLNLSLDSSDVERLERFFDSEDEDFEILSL
- Format: functional
Active and inactive are the calls of the source.
Parameter measured: IC50

{"columns": ["Smiles entry", "Test system", "Parameter measured", "Result"],
 "data": [
  ["COc1cc(OC)cc(-c2nnc(Nc3nc4c(F)cccc4s3)o2)c1", "Cysteine protease ATG4B (Homo sapiens, UniProt Q9Y4P1)", "IC50", "5.68 µM (active)"],
  ["CCn1c(SCc2ccccc2Cl)nc2nc3c(cc2c1=O)CCCC3", "Cysteine protease ATG4B (Homo sapiens, UniProt Q9Y4P1)", "IC50", "12.5 µM (active)"],
  ["CC(=C\\c1ccccc1)/C=C1/SC(=S)N(CCCC(=O)O)C1=O", "Cysteine protease ATG4B (Homo sapiens, UniProt Q9Y4P1)", "IC50", "17.1 µM (active)"],
  ["CC(C)(C)c1ccc2c(c1)C(=O)c1ccccc1C2=O", "Cysteine protease ATG4B (Homo sapiens, UniProt Q9Y4P1)", "IC50", "9.47 µM (active)"]
]}

###

- Test system: Alkaline phosphatase, tissue-nonspecific isozyme (Homo sapiens)
- Sequence (P05186 whole entry): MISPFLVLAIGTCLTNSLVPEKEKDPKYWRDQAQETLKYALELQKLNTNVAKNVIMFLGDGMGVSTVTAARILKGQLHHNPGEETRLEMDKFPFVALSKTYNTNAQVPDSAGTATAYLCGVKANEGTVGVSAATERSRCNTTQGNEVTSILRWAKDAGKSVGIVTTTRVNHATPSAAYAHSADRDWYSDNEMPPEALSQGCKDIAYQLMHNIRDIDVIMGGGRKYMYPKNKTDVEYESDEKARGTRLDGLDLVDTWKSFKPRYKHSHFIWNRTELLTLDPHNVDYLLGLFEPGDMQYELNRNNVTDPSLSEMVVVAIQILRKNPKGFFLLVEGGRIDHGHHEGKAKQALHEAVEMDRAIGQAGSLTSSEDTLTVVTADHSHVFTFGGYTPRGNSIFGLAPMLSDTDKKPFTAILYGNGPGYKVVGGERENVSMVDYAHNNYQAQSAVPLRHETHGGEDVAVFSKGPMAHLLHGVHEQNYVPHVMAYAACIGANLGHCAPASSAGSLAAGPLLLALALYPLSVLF
- Assay summary: human TNAP enzyme inhibitors, SAR follow-up, biochemical, luminescent, dose response (AID 1056)
Active and inactive are the calls of the source.
Parameter measured: IC50

{"columns": ["Smiles entry", "Result"],
 "data": [
  ["Cc1cc(C)c(C#N)c(SCC(=O)c2ccc3c(c2)OCO3)n1", "> 100 µM (inactive)"],
  ["C=CCn1c(SCC(=O)c2ccc(O)c(O)c2)nnc1-c1cccc(Cl)c1", "20.7 µM (active)"],
  ["CC(=O)Nc1nc(SCCCc2ccccc2)n[nH]1", "6 µM (active)"],
  ["COc1ccc(Cc2nnc(N3C(=O)c4ccccc4C3=O)[nH]2)cc1", "> 100 µM (inactive)"]
]}

###

- Test system: Phospholipase A2 (Homo sapiens);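 further: confirmatory dose-response counterscreen on phospholipase A2, testing hits that came from an ultra-high-throughput screen for ATG4B inhibitors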
- Sequence (P04054 whole entry): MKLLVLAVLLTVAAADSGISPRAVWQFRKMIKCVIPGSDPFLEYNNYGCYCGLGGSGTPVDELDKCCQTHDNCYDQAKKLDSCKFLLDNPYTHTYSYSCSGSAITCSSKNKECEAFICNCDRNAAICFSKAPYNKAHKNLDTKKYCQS
- Format: functional
Active and inactive are the calls of the source.
Outcome codes: active, inactive

{"columns": ["Smiles entry", "Class assignment"],
 "data": [
  ["CC(=C\\c1ccccc1)/C=C1/SC(=S)N(CCCC(=O)O)C1=O", "inactive"],
  ["COc1cc(OC)cc(-c2nnc(Nc3nc4c(F)cccc4s3)o2)c1", "inactive"],
  ["CC(C)(C)c1ccc2c(c1)C(=O)c1ccccc1C2=O", "active"],
  ["CCn1c(SCc2ccccc2Cl)nc2nc3c(cc2c1=O)CCCC3", "active"]
]}
